- TESTED_TARGET: T1, Murine B7-H4-Fc (Mouse B7H4 ECD, Fc_6His) (mouse, UniProt Q7TSP5 25-257)
- T1 construct: extracellular domain; also called mouse B7-H4-Fc; FcHis6 tagged murine B7-H4
- T1 sequence (Q7TSP5 whole entry, looked up): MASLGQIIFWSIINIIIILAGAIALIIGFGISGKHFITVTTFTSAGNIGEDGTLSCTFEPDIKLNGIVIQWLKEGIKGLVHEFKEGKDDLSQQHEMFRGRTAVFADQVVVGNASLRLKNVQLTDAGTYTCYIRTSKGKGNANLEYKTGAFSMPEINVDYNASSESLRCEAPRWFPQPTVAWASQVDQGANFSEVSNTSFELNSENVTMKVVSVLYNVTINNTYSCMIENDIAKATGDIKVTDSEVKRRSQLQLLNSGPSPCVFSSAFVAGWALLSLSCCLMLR
- EXPERIMENT_DESCRIPTION: HTRF binding, human IgG1
Below, each entry is listed alongside its reported Max.
Please give the numeric answer without any surrounding text.

ZY0EOB-F05 human IgG1 (antibody, V domains shown) VH: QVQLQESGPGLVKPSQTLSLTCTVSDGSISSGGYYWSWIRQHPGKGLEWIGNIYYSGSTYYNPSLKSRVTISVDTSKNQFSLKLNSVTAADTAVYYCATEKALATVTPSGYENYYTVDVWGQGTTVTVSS VL: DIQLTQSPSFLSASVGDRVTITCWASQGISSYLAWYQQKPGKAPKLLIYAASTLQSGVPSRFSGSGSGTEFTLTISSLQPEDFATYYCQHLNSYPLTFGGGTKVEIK : 1320

Record ZY0EQD-E02 human IgG1 (antibody, V domains shown) VH: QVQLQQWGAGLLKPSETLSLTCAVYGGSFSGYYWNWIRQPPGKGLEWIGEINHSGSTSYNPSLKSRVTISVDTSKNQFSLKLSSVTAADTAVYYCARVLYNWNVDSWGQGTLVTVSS VL: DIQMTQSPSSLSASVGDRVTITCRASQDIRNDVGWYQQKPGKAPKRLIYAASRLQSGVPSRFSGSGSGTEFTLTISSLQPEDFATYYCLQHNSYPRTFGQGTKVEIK . Reported Max: 167

Looking up ZY0EP0-C07 human IgG1 (antibody, V domains shown, also called ZY0EPO-C07) VH: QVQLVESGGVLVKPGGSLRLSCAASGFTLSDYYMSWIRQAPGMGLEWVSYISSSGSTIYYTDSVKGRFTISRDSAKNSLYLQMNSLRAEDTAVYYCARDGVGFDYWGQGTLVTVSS VL: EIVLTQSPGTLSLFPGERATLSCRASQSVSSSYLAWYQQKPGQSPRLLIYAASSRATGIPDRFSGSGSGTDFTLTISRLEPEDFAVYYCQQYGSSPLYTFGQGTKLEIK , I see its Max listed as 1320

Record ZY0EPQ-E02 human IgG1 (antibody, V domains shown) VH: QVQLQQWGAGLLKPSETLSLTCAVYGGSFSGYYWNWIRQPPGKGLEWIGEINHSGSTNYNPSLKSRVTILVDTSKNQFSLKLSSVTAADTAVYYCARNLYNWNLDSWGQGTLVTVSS VL: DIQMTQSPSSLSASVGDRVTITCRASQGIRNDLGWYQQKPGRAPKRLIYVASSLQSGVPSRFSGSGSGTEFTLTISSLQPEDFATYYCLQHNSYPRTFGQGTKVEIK . Reported Max: 279

Reported Max ( ZY0EO5-E07 human IgG1 (antibody, V domains shown, also called ZY0E05-E07; E05-E07) VH: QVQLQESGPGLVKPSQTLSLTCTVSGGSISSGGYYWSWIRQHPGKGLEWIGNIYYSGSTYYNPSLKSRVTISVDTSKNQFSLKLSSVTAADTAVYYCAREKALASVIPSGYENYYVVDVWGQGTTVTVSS VL: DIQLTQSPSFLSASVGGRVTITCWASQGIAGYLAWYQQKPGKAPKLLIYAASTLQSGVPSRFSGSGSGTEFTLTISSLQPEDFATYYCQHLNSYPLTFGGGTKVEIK ) = 1300
